Source of measurements: ChEMBL document CHEMBL4665833

- run description: GSH reactivity in pH 7.4 phosphate buffer assessed as change in gibbs free energy at 1 uM in presence of glutathione measured up to 120 mins by LC/MS analysis
- Format: ADME
- reported conditions: pH 7.4, 2 h
deltaG: recorded values

                           chemical_string  reported_property           result
0                    C=C(Cl)C(=O)Nc1ccccc1             deltaG    21.6 kcal/mol
1              O=C(/C=C/CN1CCCC1)Nc1ccccc1             deltaG    24.1 kcal/mol
2               CN(C)CC/C=C/C(=O)Nc1ccccc1             deltaG    24.7 kcal/mol
3  O=C(/C=C/CN1CC(F)(F)C(F)(F)C1)Nc1ccccc1             deltaG  > 24.7 kcal/mol
4                C=C(CN(C)C)C(=O)Nc1ccccc1             deltaG  < 21.4 kcal/mol

Task item: deltaG for "O=C(/C=C/C(F)F)Nc1ccccc1" ?
Reply: 23.3 kcal/mol

Task item: deltaG for "CCN(CC)C/C=C/C(=O)Nc1ccccc1" ?
Reply: 24.1 kcal/mol

Task item: deltaG for "CN(C)C/C=C/C(=O)Nc1ccccc1" ?
Reply: 23.9 kcal/mol

Task item: deltaG for "C=CC(=O)Nc1ccccc1" ?
Reply: 24.1 kcal/mol

Task item: deltaG for "C=C(C(=O)Nc1ccccc1)C(F)(F)F" ?
Reply: 22.6 kcal/mol
